// reported growth for each item listed
System: 786-0 renal
experiment description: NCI-60 one-dose screen, 48 h (100 = growth as untreated, 0 = no growth, -100 = all killed)
run parameters: 10 µM unless noted
Procedure: Cells are grown in 96 well plates and exposed to the test compound for 48 hours. Compounds are tested at a single concentration, which is 10^-5 M for most compounds. The reported endpoint is percent growth (GI% or GIPRCNT), where numbers from 0 - 100% represent growth inhibition, and numbers from -100% - 0 represent cell death. For example, a value of 40 represents 60% growth inhibition. A value of 0 means no net growth occurred over the course of the experiment. […]
About 83,000 compounds went through this panel and 20% of them were active in at least one assay; those are over-represented in the sample as a whole.
Use % as the unit, but write only the number.

Solved entries:
- compound: "NC(=O)Nc1ccc2ncnc(Nc3cccc(O)c3)c2c1"
  growth (%): 92.6
- compound: "COc1ccc2c(c1)CCCC21C(=O)Nc2c(Cl)cccc21 (centres undefined)"
  growth (%): 78.9
- compound: "Cc1cc(C)cc(Nc2cc(C)nc3nc(C(F)(F)F)nn23)c1"
  growth (%): 36.6
- compound: "CCOC(CN1CCN(CC(C)C(=O)c2ccccc2)CC1)c1ccccc1 (centres undefined)"
  growth (%): 106

get_value(item= "COc1ccc(-c2nc(-c3cc(OC)cc(OC)c3)[nH]c2-c2ccc(OC)cc2)cc1" , readout=growth) returns 63.8

get_value(item= "CC(C)(C)CC(C)(C)NCc1cc(C(C)(C)C)cc(CNC(C)(C)CC(C)(C)C)c1O" , readout=growth) returns 71.1

get_value(item= "COc1ccc([C@@H]2[C@@H](Oc3ccccc3)C(=O)N2c2cc(OC)c(OC)c(OC)c2)cc1F" , readout=growth) returns 5.88

get_value(item= CCCOC(=O)C1c2cc3c(cc2CC(C)C1C(=O)OCCC)OCO3 (centres undefined) , readout=growth) returns 94.5

get_value(item= "O=C(C=P(c1ccccc1)(c1ccccc1)c1ccccc1)CCl" , readout=growth) returns -75.8

get_value(item= CCN(CC)CCCC(C)N/C(c1cccc(OC)c1)=c1\c(=O)[nH]n(-c2c3ccccc3nc3ccccc23)c(=O)\c1=C(/NC(C)CCCN(CC)CC)c1cccc(OC)c1 (centres undefined) , readout=growth) returns 3.27

get_value(item= C#CC[C@@H]1C[C@]2(C)[C@H]3CC[C@@H]4[C@H]5C(C(=C)C)CC[C@]5(C(=O)NCCCCCCCCN)CC[C@@]4(C)[C@]3(C)CC[C@H]2C(C)(C)[C@H]1OC(C)=O (some centres undefined) , readout=growth) returns 85.1

get_value(item= "O=c1c2sc3ccccc3c2nnn1-c1ccc(F)c(Cl)c1" , readout=growth) returns 31.9

get_value(item= "CC1=C(O)C(=O)C(c2c(C)cc(C)c(Br)c2C)=C(O)C1=O" , readout=growth) returns 56.8

get_value(item= "C=CCN(CCOC(=O)c1ccc([N+](=O)[O-])cc1)CCOC(=O)c1ccc([N+](=O)[O-])cc1" , readout=growth) returns 103

get_value(item= "COc1ccc2[nH]c(O)c(/C=c3/ccc4c(c3)N=C(c3ccc(C(F)(F)F)cc3)N=4)c2c1" , readout=growth) returns 37.3

get_value(item= "COc1ccc2[nH]cc(/C=C3\C(=O)Nc4ccccc43)c2c1" , readout=growth) returns 53.8

get_value(item= "CCN(CC)CCCCCCCNc1cc(OC)cc2c(C)ccnc12" , readout=growth) returns 80.8

get_value(item= COc1cc(C2CC(c3cccc(Nc4ccnc5cc(Cl)ccc45)c3)=NN2c2ccc(Cl)cc2)cc(OC)c1OC (centres undefined) , readout=growth) returns 54.5

get_value(item= "CC(=O)c1nn(-c2ccccc2)/c(=N\N=C\c2coc3ccc(F)cc3c2=O)s1" , readout=growth) returns 110

---

// reported growth for each item listed
Tested on: SF-268 CNS
experiment description: NCI-60 one-dose screen, 48 h (100 = growth as untreated, 0 = no growth, -100 = all killed)
run parameters: 10 µM unless noted
About 83,000 compounds went through this panel and 20% of them were active in at least one assay; those are over-represented in the sample as a whole. Activity calls are given as the source filed them. How the source made its calls: active means growth percent below 10; inactive means the rest.

Solved entries:
- molecule: "O=C(CCCCCCc1nc2ccc(Br)cc2[nH]1)NO"
  assayed system: "SF-268 CNS"
  growth: "11.1% (inactive)"
- molecule: "C=CCN(CCOC(=O)c1ccc([N+](=O)[O-])cc1)CCOC(=O)c1ccc([N+](=O)[O-])cc1"
  assayed system: "SF-268 CNS"
  growth: "98% (inactive)"
- molecule: "CCCCCCCCCCCCCCCCS(=O)(=O)Nc1cc(C(=O)NN)cc(C(=O)NN)c1"
  assayed system: "SF-268 CNS"
  growth: "43.4% (inactive)"
- molecule: "CC(=O)c1nn(-c2ccccc2)/c(=N\\N=C\\c2coc3ccc(F)cc3c2=O)s1"
  assayed system: "SF-268 CNS"
  growth: "87.8% (inactive)"
- molecule: "COc1cc(C2CC(c3cccc(Nc4ccnc5cc(Cl)ccc45)c3)=NN2c2ccccc2)cc(OC)c1OC (stereo unspecified)"
  assayed system: "SF-268 CNS"
  growth: "63.2% (inactive)"

Moving on to the next molecule.
get_value(item= N#CC1=C(N)Oc2nc[nH]c(=O)c2C1c1cccs1 (stereo unspecified) , readout=growth) returns 108% (inactive)

---

System: SNB-75 CNS
experiment description: NCI-60 one-dose screen, 48 h
run parameters: 10 µM unless noted
About 83,000 compounds went through this panel and 20% of them were active in at least one assay; those are over-represented in the sample as a whole. Calls of active or inactive are those of the source. How the source made its calls: active means growth percent below 10; inactive means the rest.
Can you answer with just one of these options? label 1 = active, label 0 = inactive

- compound: "COc1cccc(Cn2c(-c3nonc3NC(C)=O)nc3ccccc32)c1"
  assigned label: "label 0"
- compound: "FC(F)(F)C1=NNC(c2ccc3ccccc3c2)=NN1"
  assigned label: "label 0"
- compound: "NCCCOc1cc2ccccc2cc1C(=O)NCCCOc1cc2ccccc2cc1C(=O)Nc1ccc(Cl)cc1O"
  assigned label: "label 1"
- compound: "CN(C)c1ccc(/C=C(\\C#N)c2nc3ccccc3n2C)cc1"
  assigned label: "label 1"
- compound: "Cc1nc2n[nH]c(N)c2nc1C"
  assigned label: "label 0"

Task: // outcome(item) with item = "C=CCN(CCOC(=O)c1ccc([N+](=O)[O-])cc1)CCOC(=O)c1ccc([N+](=O)[O-])cc1"
Output: label 0

Task: // outcome(item) with item = "Oc1ccc(Nc2ncnc3c2sc2ncccc23)cc1"
Output: label 0

Task: // outcome(item) with item = "Brc1ccccc1Cn1c(-c2cncs2)nc2ccccc21"
Output: label 0

Task: // outcome(item) with item = O=C(C(Br)C(Br)c1ccccc1)C(Br)C(Br)c1ccccc1 (configuration not stated)
Output: label 0

Task: // outcome(item) with item = "CC(=O)N(C)c1ccc(Nc2cc(C)[nH]c3ccc4ncnc4c23)cc1"
Output: label 0

Task: // outcome(item) with item = "NC(N)=N/N=C\c1ccc(OCc2ccccc2)cc1"
Output: label 0

---

Tested on: CCRF-CEM leukemia
experiment description: NCI-60 one-dose screen, 48 h (100 = growth as untreated, 0 = no growth, -100 = all killed)
run parameters: 10 µM unless noted
Compounds without any hit were thinned out: in the full panel of roughly 83,000, 20% have a hit.
Friendly reminder: growth below 70% is Fulfilled, at or above is Not fulfilled.

Take a look at these entries with their results.
- molecule: "O=NN(CC(=O)NNc1ccccc1)CC(=O)NNc1ccccc1"
  assigned label: "Fulfilled"
- molecule: "NNC(=O)Cc1ccccc1"
  assigned label: "Fulfilled"
- molecule: "O=C(Nc1ccc(OS(=O)(=O)c2ccc(F)cc2)cc1)C12CC3CC(CC(C3)C1)C2"
  assigned label: "Fulfilled"
- molecule: "Nc1cc2nc3ccccc3oc-2cc1=O"
  assigned label: "Not fulfilled"
- molecule: "C=CCn1c(SCC(=O)Nc2ccc(/C(C)=N\\O)cc2)nnc1-c1cc(-c2ccccc2)nc2ccccc12"
  assigned label: "Fulfilled"

Task: Please check: growth for CC1=NC(c2ccc(Cl)cc2)C2=C(N1)/C(=C/c1ccc(Cl)cc1)CCC2 (stereo not drawn) , strictly under 70% or not?
Output: Not fulfilled

Task: Please check: growth for CC1=C(C(=O)Nc2ccc(F)cc2)C(c2ccc(Cl)cc2)C2=C(CC(C)(C)CC2=O)N1 (stereo not drawn) , strictly under 70% or not?
Output: Not fulfilled

Task: Please check: growth for "O=C(CI)NCCNc1cccc2c(S(=O)(=O)O)cccc12" , strictly under 70% or not?
Output: Not fulfilled

Task: Please check: growth for COc1cc(NC(C)CCCN)c2ncccc2c1Oc1ccc(Cl)cc1 (stereo not drawn) , strictly under 70% or not?
Output: Not fulfilled

Task: Please check: growth for "C=CCn1c(C)nc2cc(Nc3nc(N4CCCC4)nc4nc[nH]c34)ccc21" , strictly under 70% or not?
Output: Not fulfilled

Task: Please check: growth for CC1C2CCC(C2)C1COCCOCCO (stereo not drawn) , strictly under 70% or not?
Output: Not fulfilled

Task: Please check: growth for "O=c1c2sc3ccccc3c2nnn1-c1ccc(F)c(Cl)c1" , strictly under 70% or not?
Output: Fulfilled
